Target or system UniProtKB P05177; recorded quantity AC50.
Sequence (P05177 whole entry): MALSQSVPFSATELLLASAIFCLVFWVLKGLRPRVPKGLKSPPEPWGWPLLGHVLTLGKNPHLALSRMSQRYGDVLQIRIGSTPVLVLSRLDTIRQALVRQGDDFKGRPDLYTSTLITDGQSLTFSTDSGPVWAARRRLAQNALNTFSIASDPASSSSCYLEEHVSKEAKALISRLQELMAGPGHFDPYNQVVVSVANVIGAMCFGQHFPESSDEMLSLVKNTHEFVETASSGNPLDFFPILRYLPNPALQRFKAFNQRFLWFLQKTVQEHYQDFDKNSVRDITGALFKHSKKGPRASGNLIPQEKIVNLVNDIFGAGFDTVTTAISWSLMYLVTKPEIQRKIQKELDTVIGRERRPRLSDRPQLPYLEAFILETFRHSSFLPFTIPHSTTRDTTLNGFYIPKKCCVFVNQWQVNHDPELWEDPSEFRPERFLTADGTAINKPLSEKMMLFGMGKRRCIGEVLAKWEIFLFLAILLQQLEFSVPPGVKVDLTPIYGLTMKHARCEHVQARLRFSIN

Prompt: Give UniProtKB P05177 AC50 for the following compound: `CN(C)c1ccc(C(c2ccc(N(C)C)cc2)c2ccc([N+](=O)[O-])cc2)cc1`
Completion: 3.16 µM (inconclusive)

Prompt: Give UniProtKB P05177 AC50 for the following compound: `COc1ccc(-c2nc3cnc(Nc4ccccc4)nc3n(CCC#N)c2=O)cc1`
Completion: 0.501 µM (inconclusive)

Prompt: # return AC50 for `C[N+](C)(CCCCCC[N+](C)(C)CCCN1C(=O)c2ccccc2C1=O)CCCN1C(=O)c2ccccc2C1=O` , test system: UniProtKB P05177
Completion: 31.6 µM (inconclusive)

Prompt: Param request: AC50 | system UniProtKB P05177 | item `Cc1cc(N)n(-c2ccccc2)n1`
Completion: 31.6 µM (inconclusive)

Prompt: Tell me AC50 of COC(=O)C1=C(C)OC(N)=C(C#N)C1C1CCCCC1 (stereo unspecified) when tested on UniProtKB P05177.
Completion: 15.8 µM (inconclusive)

Prompt: Provide UniProtKB P05177 AC50 reading for `COc1ccc2nc(C)cc(SCC(=O)NNC(=O)COc3ccccc3)c2c1` .
Completion: 10 µM (inconclusive)

Prompt: State measured AC50 of the compound `Cc1nc2sccn2c(=O)c1Cl` with UniProtKB P05177.
Completion: 15.8 µM (inconclusive)

Prompt: Determine reported AC50 for `COc1ccc(CNc2ccnc(-c3ccc(C(=O)N(C)C)cc3)n2)c(OC)c1` ; test system: UniProtKB P05177.
Completion: 12.6 µM (inconclusive)

Prompt: Lab note: UniProtKB P05177 assay, enter AC50 for `Cc1cc(Cl)ccc1OCC(=O)N/N=C1\CCCc2ccccc21` here
Completion: 2.51 µM (inconclusive)

Prompt: # lookup: UniProtKB P05177 AC50, key = `Clc1ccc2c(c1)C=Nc1c(NCc3ccccc3)ncnc1O2`
Completion: 0.631 µM (inconclusive)

Prompt: Using UniProtKB P05177 as the test system, report measured AC50 of `O=C(N/N=C/c1cccc(OC2CSC2)c1)c1ccccc1O` .
Completion: 3.16 µM (inconclusive)
